percentage of EdU-negative: recorded values
- System: MCF7;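 further: secreted proteins added to cultured cells, EdU pulse at the end, nuclei found by Hoechst imaging, EdU status from nuclear versus surrounding ring intensity ratio, PBS as neutral control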
- assay_remarks: percentage of EdU-negative (G0-arrested) nuclei per well, 72 h; higher = more G0 arrest
- measurement_parameters: protein concentration 0.03125 µM; reference: sequence is the full UniProt precursor, the tested protein was the secreted form or ectodomain
readout_type: percentage of EdU-negative (%)

{"columns": ["sequence_input", "readout_type", "val"],
 "data": [
  ["MGPLSAPPCTEHIKWKGLLLTALLLNFWNLPTTAQVMIEAQPPKVSEGKDVLLLVHNLPQNLTGYIWYKGQIRDLYHYITSYVVDGQIIIYGPAYSGRETVYSNASLLIQNVTREDAGSYTLHIIKRGDGTRGVTGYFTFTLYLETPKPSISSSNLNPREAMETVILTCNPETPDASYLWWMNGQSLPMTHRMQLSETNRTLFLFGVTKYTAGPYECEIWNSGSASRSDPVTLNLLHGPDLPRIFPSVTSYYSGENLDLSCFANSNPPAQYSWTINGKFQLSGQKLFIPQITPKHNGLYACSARNSATGEESSTSLTIRVIAPPGLGTFAFNNPT [Q9UQ72]", "percentage of EdU-negative", 24.9],
  ["MWPLWRLVSLLALSQALPFEQRGFWDFTLDDGPFMMNDEEASGADTSGVLDPDSVTPTYSAMCPFGCHCHLRVVQCSDLGLKSVPKEISPDTTLLDLQNNDISELRKDDFKGLQHLYALVLVNNKISKIHEKAFSPLRKLQKLYISKNHLVEIPPNLPSSLVELRIHDNRIRKVPKGVFSGLRNMNCIEMGGNPLENSGFEPGAFDGLKLNYLRISEAKLTGIPKDLPETLNELHLDHNKIQAIELEDLLRYSKLYRLGLGHNQIRMIENGSLSFLPTLRELHLDNNKLARVPSGLPDLKLLQVVYLHSNNITKVGVNDFCPMGFGVKRAYYNGISLFNNPVPYWEVQPATFRCVTDRLAIQFGNYKK", "percentage of EdU-negative", 25.3],
  ["MLPRVGCPALPLPPPPLLPLLLLLLGASGGGGGARAEVLFRCPPCTPERLAACGPPPVAPPAAVAAVAGGARMPCAELVREPGCGCCSVCARLEGEACGVYTPRCGQGLRCYPHPGSELPLQALVMGEGTCEKRRDAEYGASPEQVADNGDDHSEGGLVENHVDSTMNMLGGGGSAGRKPLKSGMKELAVFREKVTEQHRQMGKGGKHHLGLEEPKKLRPPPARTPCQQELDQVLERISTMRLPDERGPLEHLYSLHIPNCDKHGLYNLKQCKMSLNGQRGECWCVNPNTGKLIQGAPTIRGDPECHLFYNEQQEARGVHTQRMQ", "percentage of EdU-negative", 27.7],
  ["MAGPLRAPLLLLAILAVALAVSPAAGSSPGKPPRLVGGPMDASVEEEGVRRALDFAVGEYNKASNDMYHSRALQVVRARKQIVAGVNYFLDVELGRTTCTKTQPNLDNCPFHDQPHLKRKAFCSFQIYAVPWQGTMTLSKSTCQDA", "percentage of EdU-negative", 26.2],
  ["MFIKVMFGAGCSVLVNTSCRLVNLTAHLRQKAGLPPDATIALLAEDGNLVSLEEDLKEGASRAQTMGNSLLKERAIYVLVRIIKGEDMASTRYESLLENLDDHYPELAEELRRLSGLSSVGHNWRKRMGTRRGRHEQSPTSRPRKGPD [Q8WYQ4]", "percentage of EdU-negative", 28],
  ["MVKQIESKTAFQEALDAAGDKLVVVDFSATWCGPCKMIKPFFHSLSEKYSNVIFLEVDVDDCQDVASECEVKCMPTFQFFKKGQKVGEFSGANKEKLEATINELV", "percentage of EdU-negative", 25.2]
]}

Where do the numbers come from? From the supplement of paper PMC11316812.
